Each recorded value in this set is attributed to paper PMC7670640.

Assay: Single ascending dose part
Type: in vivo, human
Settings: human, plasma, oral, 200 mg
measured_metric: AUC
Hi, when you answer, please include the unit after the number. Thanks!

Which AUC reading was recorded for the compound C=C(C)[C@@H]1CC[C@]2(NCCN3CCS(=O)(=O)CC3)CC[C@]3(C)[C@H](CC[C@@H]4[C@@]5(C)CC=C(C6=CC[C@@](CF)(C(=O)O)CC6)C(C)(C)[C@@H]5CC[C@]43C)[C@@H]12 ?
15000 ng·h/mL

---

Experiment: Single ascending dose part
Format: in vivo, human
Details: human, plasma, oral, 3 mg
measured_metric: AUC (ng·h/mL)
Please respond with the number in ng·h/mL and leave the unit unwritten.

Which AUC reading was recorded for the compound C=C(C)[C@@H]1CC[C@]2(NCCN3CCS(=O)(=O)CC3)CC[C@]3(C)[C@H](CC[C@@H]4[C@@]5(C)CC=C(C6=CC[C@@](CF)(C(=O)O)CC6)C(C)(C)[C@@H]5CC[C@]43C)[C@@H]12 ?
329

---

Experiment: Single ascending dose part
Type: in vivo, human
Conditions: human, plasma, oral, 100 mg, tmax, median (range), single dose 100 mg, N = 6
measured_metric: Tmax

Which Tmax reading was recorded for the compound C=C(C)[C@@H]1CC[C@]2(NCCN3CCS(=O)(=O)CC3)CC[C@]3(C)[C@H](CC[C@@H]4[C@@]5(C)CC=C(C6=CC[C@@](CF)(C(=O)O)CC6)C(C)(C)[C@@H]5CC[C@]43C)[C@@H]12 [GSK3640254] ?
3.8 h

---

Test: Single ascending dose part
Type: in vivo, human
Settings: human, plasma, oral, 100 mg
measured_metric: AUC
Hi, when you answer, please include the unit after the number. Thanks!

Which AUC reading was recorded for the molecule C=C(C)[C@@H]1CC[C@]2(NCCN3CCS(=O)(=O)CC3)CC[C@]3(C)[C@H](CC[C@@H]4[C@@]5(C)CC=C(C6=CC[C@@](CF)(C(=O)O)CC6)C(C)(C)[C@@H]5CC[C@]43C)[C@@H]12 [GSK3640254] ?
8540 ng·h/mL

---

Assay: Single ascending dose part
Type: in vivo, human
Conditions: human, plasma, oral, 30 mg
measured_metric: AUC (ng·h/mL)
Please respond with the number in ng·h/mL and leave the unit unwritten.

Which AUC reading was recorded for the molecule C=C(C)[C@@H]1CC[C@]2(NCCN3CCS(=O)(=O)CC3)CC[C@]3(C)[C@H](CC[C@@H]4[C@@]5(C)CC=C(C6=CC[C@@](CF)(C(=O)O)CC6)C(C)(C)[C@@H]5CC[C@]43C)[C@@H]12 ?
2990
